Organism: Rattus norvegicus
assay-overview: Open TG-GATES - Regimen: Daily Repeat
Format: toxicity, organism-based, Sprague-Dawley
Set-up: regimen Daily Repeat, gender Male, age 6 weeks
condition-summary: in vivo, po, 1000 mg/kg, […], tissue Blood, route gavage, dose level High, time 14 day
quantity-measured: Eos (%)

[[record]]
compound = "CCOc1ccc(NC(C)=O)cc1 [PHENACETIN]"
quantity_measured = "Eos"
measured = 0.8

[[record]]
compound = "CNC(=C[N+](=O)[O-])NCCSCc1ccc(CN(C)C)o1 [RANITIDINE]"
quantity_measured = "Eos"
measured = 1

[[record]]
compound = "COC(=O)C1=C(C)NC(C)=C(C(=O)OC)C1c1ccccc1[N+](=O)[O-] [NIFEDIPINE]"
quantity_measured = "Eos"
measured = 0.6

[[record]]
compound = "O=C(OC[C@H]1O[C@@H](OC(=O)c2cc(O)c(O)c(OC(=O)c3cc(O)c(O)c(O)c3)c2)[C@H](OC(=O)c2cc(O)c(O)c(OC(=O)c3cc(O)c(O)c(O)c3)c2)[C@@H](OC(=O)c2cc(O)c(O)c(OC(=O)c3cc(O)c(O)c(O)c3)c2)[C@@H]1OC(=O)c1cc(O)c(O)c(OC(=O)c2cc(O)c(O)c(O)c2)c1)c1cc(O)c(O)c(OC(=O)c2cc(O)c(O)c(O)c2)c1 [TANNIC ACID]"
quantity_measured = "Eos"
measured = 1

[[record]]
compound = "Cc1nnc2n1-c1ccc(Cl)cc1C(c1ccccc1Cl)=NC2 [TRIAZOLAM]"
quantity_measured = "Eos"
measured = 1

[[record]]
compound = "CN/C(=N/CCSCc1nc[nH]c1C)NC#N [CIMETIDINE]"
quantity_measured = "Eos"
measured = 1


* * *

Species: Rattus norvegicus
assay-overview: Open TG-GATES - Regimen: Single
Type: toxicity, organism-based, Sprague-Dawley
Design: regimen Single, gender Male, age 6 weeks
condition-summary: in vivo, po, 100 mg/kg, 3 h, tissue Plasma, route gavage, dose level Low
Parameter Cl: see the listing below.
quantity-measured: Cl (meq/L)

[[record]]
compound = "O=C(OC[C@H]1O[C@@H](OC(=O)c2cc(O)c(O)c(OC(=O)c3cc(O)c(O)c(O)c3)c2)[C@H](OC(=O)c2cc(O)c(O)c(OC(=O)c3cc(O)c(O)c(O)c3)c2)[C@@H](OC(=O)c2cc(O)c(O)c(OC(=O)c3cc(O)c(O)c(O)c3)c2)[C@@H]1OC(=O)c1cc(O)c(O)c(OC(=O)c2cc(O)c(O)c(O)c2)c1)c1cc(O)c(O)c(OC(=O)c2cc(O)c(O)c(O)c2)c1 [TANNIC ACID]"
measured = 105

[[record]]
compound = "CN/C(=N/CCSCc1nc[nH]c1C)NC#N [CIMETIDINE]"
measured = 102.6

[[record]]
compound = "COC(=O)C1=C(C)NC(C)=C(C(=O)OC)C1c1ccccc1[N+](=O)[O-] [NIFEDIPINE]"
measured = 98.2

[[record]]
compound = "CNC(=C[N+](=O)[O-])NCCSCc1ccc(CN(C)C)o1 [RANITIDINE]"
measured = 103.8

[[record]]
compound = "Cc1nnc2n1-c1ccc(Cl)cc1C(c1ccccc1Cl)=NC2 [TRIAZOLAM]"
measured = 104.2


* * *

Species: Rattus norvegicus
assay-overview: Open TG-GATES - Regimen: Single
Type: toxicity, organism-based, Sprague-Dawley
Parameters: regimen Single, gender Male, age 6 weeks
condition-summary: in vivo, po, 300 mg/kg, 3 h, tissue Plasma, route gavage, dose level Middle
Parameter AST: see the listing below.
quantity-measured: AST (IU/L)

[[record]]
compound = "CN/C(=N/CCSCc1nc[nH]c1C)NC#N [CIMETIDINE]"
quantity_measured = "AST"
result_unit = "IU/L"
measured = 68.6

[[record]]
compound = "CNC(=C[N+](=O)[O-])NCCSCc1ccc(CN(C)C)o1 [RANITIDINE]"
quantity_measured = "AST"
result_unit = "IU/L"
measured = 63.8

[[record]]
compound = "COC(=O)C1=C(C)NC(C)=C(C(=O)OC)C1c1ccccc1[N+](=O)[O-] [NIFEDIPINE]"
quantity_measured = "AST"
result_unit = "IU/L"
measured = 74.8

[[record]]
compound = "Cc1nnc2n1-c1ccc(Cl)cc1C(c1ccccc1Cl)=NC2 [TRIAZOLAM]"
quantity_measured = "AST"
result_unit = "IU/L"
measured = 71

[[record]]
compound = "O=C(OC[C@H]1O[C@@H](OC(=O)c2cc(O)c(O)c(OC(=O)c3cc(O)c(O)c(O)c3)c2)[C@H](OC(=O)c2cc(O)c(O)c(OC(=O)c3cc(O)c(O)c(O)c3)c2)[C@@H](OC(=O)c2cc(O)c(O)c(OC(=O)c3cc(O)c(O)c(O)c3)c2)[C@@H]1OC(=O)c1cc(O)c(O)c(OC(=O)c2cc(O)c(O)c(O)c2)c1)c1cc(O)c(O)c(OC(=O)c2cc(O)c(O)c(O)c2)c1 [TANNIC ACID]"
quantity_measured = "AST"
result_unit = "IU/L"
measured = 68.6


* * *

Organism: Rattus norvegicus
assay-overview: Open TG-GATES - Regimen: Daily Repeat
Type: toxicity, organism-based, Sprague-Dawley
Set-up: regimen Daily Repeat, gender Male, age 6 weeks
condition-summary: in vivo, po, 0 mg/kg, […], tissue Plasma, route gavage, dose level Control, time 14 day
Parameter DBIL: see the listing below.
quantity-measured: DBIL (mg/dL)

[[record]]
smiles_repr = "O=C(OC[C@H]1O[C@@H](OC(=O)c2cc(O)c(O)c(OC(=O)c3cc(O)c(O)c(O)c3)c2)[C@H](OC(=O)c2cc(O)c(O)c(OC(=O)c3cc(O)c(O)c(O)c3)c2)[C@@H](OC(=O)c2cc(O)c(O)c(OC(=O)c3cc(O)c(O)c(O)c3)c2)[C@@H]1OC(=O)c1cc(O)c(O)c(OC(=O)c2cc(O)c(O)c(O)c2)c1)c1cc(O)c(O)c(OC(=O)c2cc(O)c(O)c(O)c2)c1"
quantity_measured = "DBIL"
result_unit = "mg/dL"
measured = 0.018

[[record]]
smiles_repr = "CC(C)NNC(=O)c1ccncc1"
quantity_measured = "DBIL"
result_unit = "mg/dL"
measured = 0

[[record]]
smiles_repr = "Brc1ccccc1"
quantity_measured = "DBIL"
result_unit = "mg/dL"
measured = 0


* * *

Species on record: Rattus norvegicus
assay-overview: Open TG-GATES - Regimen: Daily Repeat
Type: toxicity, organism-based, Sprague-Dawley
Parameters: regimen Daily Repeat, gender Male, age 6 weeks
condition-summary: in vivo, po, 0 mg/kg, 72 h, tissue Blood, route gavage, dose level Control, time 3 day
Parameter PT: see the listing below.
quantity-measured: PT

[[record]]
smiles_repr = "Cc1nnc2n1-c1ccc(Cl)cc1C(c1ccccc1Cl)=NC2"
measured = "13 s"

[[record]]
smiles_repr = "Nc1c2c(nc3ccccc13)CCCC2"
measured = "16.8 s"

[[record]]
smiles_repr = "CCOc1ccc(NC(C)=O)cc1"
measured = "13.2 s"

[[record]]
smiles_repr = "CN/C(=N/CCSCc1nc[nH]c1C)NC#N"
measured = "12.7 s"

[[record]]
smiles_repr = "CC(C)NNC(=O)c1ccncc1"
measured = "16 s"


* * *

Parameter gamma-GTP: see the listing below.
Species: Rattus norvegicus
assay-overview: Open TG-GATES - Regimen: Single
Type: toxicity, organism-based, Sprague-Dawley
Design: regimen Single, gender Male, age 6 weeks
condition-summary: in vivo, po, 300 mg/kg, 24 h, tissue Plasma, route gavage, dose level Middle
quantity-measured: gamma-GTP (IU/L)

[[record]]
compound = "COC(=O)C1=C(C)NC(C)=C(C(=O)OC)C1c1ccccc1[N+](=O)[O-] [NIFEDIPINE]"
result_unit = "IU/L"
measured = 0.8

[[record]]
compound = "CNC(=C[N+](=O)[O-])NCCSCc1ccc(CN(C)C)o1 [RANITIDINE]"
result_unit = "IU/L"
measured = 1

[[record]]
compound = "Cc1nnc2n1-c1ccc(Cl)cc1C(c1ccccc1Cl)=NC2 [TRIAZOLAM]"
result_unit = "IU/L"
measured = 1


* * *

Organism: Rattus norvegicus
assay-overview: Open TG-GATES - Regimen: Single
Assay type: toxicity, organism-based, Sprague-Dawley
Parameters: regimen Single, gender Male, age 6 weeks
condition-summary: in vivo, po, 300 mg/kg, 24 h, tissue Plasma, route gavage, dose level Middle
Please note: LDH exactly at 100 IU/L is label 0. Only values below 100 IU/L get label 1.

[[record]]
smiles_repr = "CN/C(=N/CCSCc1nc[nH]c1C)NC#N"
class_assignment = "label 0"

[[record]]
smiles_repr = "CNC(=C[N+](=O)[O-])NCCSCc1ccc(CN(C)C)o1"
class_assignment = "label 0"

[[record]]
smiles_repr = "Cc1nnc2n1-c1ccc(Cl)cc1C(c1ccccc1Cl)=NC2"
class_assignment = "label 1"

[[record]]
smiles_repr = "O=C(OC[C@H]1O[C@@H](OC(=O)c2cc(O)c(O)c(OC(=O)c3cc(O)c(O)c(O)c3)c2)[C@H](OC(=O)c2cc(O)c(O)c(OC(=O)c3cc(O)c(O)c(O)c3)c2)[C@@H](OC(=O)c2cc(O)c(O)c(OC(=O)c3cc(O)c(O)c(O)c3)c2)[C@@H]1OC(=O)c1cc(O)c(O)c(OC(=O)c2cc(O)c(O)c(O)c2)c1)c1cc(O)c(O)c(OC(=O)c2cc(O)c(O)c(O)c2)c1"
class_assignment = "label 0"

[[record]]
smiles_repr = "COC(=O)C1=C(C)NC(C)=C(C(=O)OC)C1c1ccccc1[N+](=O)[O-]"
class_assignment = "label 1"

